All figures here come from patent US12466821B2.

Target: human HSV DNA polymerase UL30 (Human herpesvirus 1 (strain 17) (HHV-1) (Human herpes simplex virus 1), UniProt P04293)
Assay: HSV polymerase biochemical assay (molecular beacon-based)
Please go through the items and note down their log10 IC50.
The common logarithm of IC50 in nM is what is listed.

Q. // returns reported log10 IC50 for input "COc1cc(CNC(=O)c2ccc3n(c2=O)CCN(CC2(S(=O)(=O)C4CC4)CC2)C3=O)ccc1Cl"
A. 2.07

Q. // returns reported log10 IC50 for input "CC(C)(CN)S(=O)(=O)C1(CN2CCn3c(ccc(C(=O)NCc4ccc(C#N)cc4)c3=O)C2=O)CC1"
A. 1.78

Q. // returns reported log10 IC50 for input "O=C(NCc1ccc(Cl)cc1)c1cc(CF)c2n(c1=O)CCN(CCN1CCCS1(=O)=O)C2=O"
A. 2.52

Q. // returns reported log10 IC50 for input "N#Cc1ccc(CNC(=O)c2ccc3n(c2=O)CCN(CC2(S(=O)(=O)C4(C(F)(F)F)CC4)CC2)C3=O)cc1F"
A. 1.96

Q. // returns reported log10 IC50 for input "CS(=O)(=O)CCCN1CCn2c(c(C(F)F)cc(C(=O)NCc3ccc(Cl)cc3)c2=O)C1=O"
A. 3.83

Q. // returns reported log10 IC50 for input "Cc1cc(C(=O)NCc2ccc(C#N)cc2)c(=O)n2c1C(=O)N(CC1(S(C)(=O)=O)CC1)CC2"
A. 2.01

Q. // returns reported log10 IC50 for input N#Cc1ccc(CNC(=O)c2ccc3n(c2=O)CCN(CC2CCCS2(=O)=O)C3=O)cc1F (stereo not drawn)
A. 4.32

Q. // returns reported log10 IC50 for input "Cc1cc(C(=O)NCc2ccc(C#N)c(F)c2)c(=O)n2c1C(=O)N(CC1(S(=O)(=O)C3CC3)CC1)CC2"
A. 1.45

Q. // returns reported log10 IC50 for input "N#Cc1ccc(CNC(=O)c2cc(F)c3n(c2=O)CCN(CC2(S(=O)(=O)C4CC4)CC2)C3=O)cc1F"
A. 1.90

Q. // returns reported log10 IC50 for input "CS(=O)(=O)CCN1CCn2c(c(C#N)cc(C(=O)NCc3ccc(Cl)cc3)c2=O)C1=O"
A. 3.00

Q. // returns reported log10 IC50 for input "CN(C)S(=O)(=O)C1(CN2CCn3c(ccc(C(=O)NCc4ccc(Cl)cc4)c3=O)C2=O)CC1"
A. 1.09

Q. // returns reported log10 IC50 for input "CC(=O)NS(=O)(=O)C1(CN2CCn3c(ccc(C(=O)NCc4ccc(C#N)cc4)c3=O)C2=O)CC1"
A. 1.66

Q. // returns reported log10 IC50 for input "CCc1cc(C(=O)NCc2ccc(Cl)cc2)c(=O)n2c1C(=O)N(CC1(S(C)(=O)=O)CC1)CC2"
A. 2.13

Q. // returns reported log10 IC50 for input "N#Cc1ccc(CNC(=O)c2ccc3n(c2=O)CCN(CC2(S(=O)(=O)CC4(C(F)(F)F)CC4)CC2)C3=O)cc1F"
A. 2.44

Q. // returns reported log10 IC50 for input "O=C(NCc1ccc(Cl)cc1)c1cc(F)c2n(c1=O)CCN(CCN1CCCS1(=O)=O)C2=O"
A. 2.15

Q. // returns reported log10 IC50 for input "CC(C)S(=O)(=O)C1(CN2CCn3c(ccc(C(=O)NCc4ccc(Cl)cc4)c3=O)C2=O)CC1"
A. 1.49

Q. // returns reported log10 IC50 for input "CS(=O)(=O)CCCN1CCn2c(ccc(C(=O)NCc3ccc(Cl)cc3)c2=O)C1=O"
A. 2.90

Q. // returns reported log10 IC50 for input "N#Cc1ccc(CNC(=O)c2ccc3n(c2=O)CCN(CCS(=O)(=O)C2CC2)C3=O)cc1"
A. 2.93

Q. // returns reported log10 IC50 for input "CN1CC(S(=O)(=O)C2(CN3CCn4c(ccc(C(=O)NCc5ccc(C#N)c(F)c5)c4=O)C3=O)CC2)C1"
A. 2.58

Q. // returns reported log10 IC50 for input C[C@H](CCO)S(=O)(=O)C1(CN2CCn3c(ccc(C(=O)NCc4ccc(Cl)cc4)c3=O)C2=O)CC1 (single isomer, unassigned)
A. 1.74

Q. // returns reported log10 IC50 for input "CN(C)S(=O)(=O)CCN1CCn2c(ccc(C(=O)NCc3ccc(Cl)cc3)c2=O)C1=O"
A. 3.44

Q. // returns reported log10 IC50 for input "CC1(CS(=O)(=O)C2(CN3CCn4c(ccc(C(=O)NCc5ccc(C#N)c(F)c5)c4=O)C3=O)CC2)CC1"
A. 2.08

Q. // returns reported log10 IC50 for input "COC1(S(=O)(=O)C2(CN3CCn4c(ccc(C(=O)NCc5ccc(C#N)cc5)c4=O)C3=O)CC2)CC1"
A. 1.78

Q. // returns reported log10 IC50 for input "CC(C)S(=O)(=O)C1(CN2CCn3c(ccc(C(=O)NCc4ccc(C#N)c(F)c4)c3=O)C2=O)CC1"
A. 1.68
